Target: human AGT mutant P140A (Homo sapiens, UniProt P16455, P140A)
Sequence (P16455 whole entry P140A): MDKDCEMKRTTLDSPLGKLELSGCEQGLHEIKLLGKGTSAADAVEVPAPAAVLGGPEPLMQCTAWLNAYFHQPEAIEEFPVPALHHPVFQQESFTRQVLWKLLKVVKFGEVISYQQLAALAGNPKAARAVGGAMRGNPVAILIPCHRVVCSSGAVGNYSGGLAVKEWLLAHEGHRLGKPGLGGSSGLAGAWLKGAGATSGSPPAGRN
Test: Inactivation of cellular AGT in CHO cells expressing mutant P140A (CHO-P140A)
Conditions: CHO-P140A cells; read-out: Inactivation of AGT, ED50 after 4 h exposure
quantity kind: IC50 (nM)
Quick note: give the figure in nM, leave out the unit.

Input line: Kindly indicate its recorded IC50. Item: Nc1nc(N)c(N=O)c(OCc2ccccc2)n1
Output line: 1250
